This section presents compounds with their documented pKi values.
# Measured on: human 5-hydroxytryptamine2C (h5HT2C) receptor (Homo sapiens)
# Construct: expressed in transfected cells; host or cells: CHO (Chinese Hamster Ovary) cells; membrane preparation
# Sequence (P28335 33-458): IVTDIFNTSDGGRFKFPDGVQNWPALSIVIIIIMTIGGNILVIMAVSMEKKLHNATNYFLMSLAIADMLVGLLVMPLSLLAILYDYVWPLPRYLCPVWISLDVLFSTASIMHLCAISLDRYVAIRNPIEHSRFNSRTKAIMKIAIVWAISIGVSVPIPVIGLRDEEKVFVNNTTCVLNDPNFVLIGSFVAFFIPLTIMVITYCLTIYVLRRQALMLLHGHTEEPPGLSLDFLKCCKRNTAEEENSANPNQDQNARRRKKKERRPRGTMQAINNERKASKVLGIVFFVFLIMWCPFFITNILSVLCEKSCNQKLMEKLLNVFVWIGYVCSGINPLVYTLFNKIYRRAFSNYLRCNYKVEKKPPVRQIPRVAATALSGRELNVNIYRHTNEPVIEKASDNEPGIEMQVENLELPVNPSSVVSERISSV
# Assay details: 5HT2C receptor binding ([125I]DOI displacement, CHO cell membranes)
Convention used: pKi is expressed as -log10 of the molar concentration.

These recorded examples may help you get a feel for the data.
1. c1cc2c3c(c1)CC1CCCC1N3CCNC2 (stereo not drawn) [Example 1, trans isomer] | 7.15
2. c1cc2c3c(c1)CC1CCCCC1N3CCNC2 (stereo not drawn) [Example 2, trans isomer] | 6.29
3. c1cc2c3c(c1)C[C@H]1CCCC[C@H]1N3CCNC2 (relative stereo) [Example 2, cis isomer] | 6.29

Enquiry: Which measured pKi value corresponds to c1cc2c3c(c1)C[C@@H]1CCC[C@@H]1N3CCNC2 (relative stereo) [Example 1, cis isomer] ?
Return: 6.93
